ASSAY_TARGET: 5-LOX (Homo sapiens, UniProt P09917)
Construct: endogenous in cells; host or cells: HL-60 (human myeloid leukemia, DSMZ ACC 3), differentiated with DMSO
Sequence (P09917 whole entry): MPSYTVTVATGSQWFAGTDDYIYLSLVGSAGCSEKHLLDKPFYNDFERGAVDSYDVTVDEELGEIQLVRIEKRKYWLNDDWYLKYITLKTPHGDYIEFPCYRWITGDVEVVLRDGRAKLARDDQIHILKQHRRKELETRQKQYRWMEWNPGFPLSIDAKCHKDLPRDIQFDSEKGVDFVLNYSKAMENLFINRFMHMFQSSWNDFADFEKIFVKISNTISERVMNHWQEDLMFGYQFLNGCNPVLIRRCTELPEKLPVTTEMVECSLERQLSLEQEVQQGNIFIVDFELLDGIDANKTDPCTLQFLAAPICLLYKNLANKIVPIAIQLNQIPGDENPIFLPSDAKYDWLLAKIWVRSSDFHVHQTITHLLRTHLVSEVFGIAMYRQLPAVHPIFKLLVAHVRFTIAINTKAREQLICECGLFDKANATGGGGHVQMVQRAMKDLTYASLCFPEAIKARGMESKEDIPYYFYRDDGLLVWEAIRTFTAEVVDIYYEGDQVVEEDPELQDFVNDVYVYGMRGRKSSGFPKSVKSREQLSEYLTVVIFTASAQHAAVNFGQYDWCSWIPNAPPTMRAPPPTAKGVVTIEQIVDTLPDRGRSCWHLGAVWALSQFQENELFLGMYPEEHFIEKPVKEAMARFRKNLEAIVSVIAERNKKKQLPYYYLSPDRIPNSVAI
EXPERIMENTAL_DETAILS: 5-LOX inhibition assay (LTB4) in differentiated HL-60 granulocytes
Assay type: cell-based
CONDITION_DESCRIPTION: reference listed under the 5-LOX IC50 table
OBSERVED_PROPERTY: IC50 (nM)
The response must be a number in nM with no trailing unit.

Input: Please give measured IC50 of the following entry: C[C@@H]1C[C@H]2[C@@H]3CCC4=CC(=O)C=C[C@]4(C)[C@@]3(F)[C@@H](O)C[C@]2(C)[C@@]1(O)C(=O)CO [Dexamethasone]
Output: 0.28
